target: Tyrosine-protein phosphatase non-receptor type 1 (Homo sapiens); assay: Inhibition of recombinant PTP1B (unknown origin) assessed as hydrolysis of pNPP to pNP after 30 mins
Sequence (P18031 whole entry): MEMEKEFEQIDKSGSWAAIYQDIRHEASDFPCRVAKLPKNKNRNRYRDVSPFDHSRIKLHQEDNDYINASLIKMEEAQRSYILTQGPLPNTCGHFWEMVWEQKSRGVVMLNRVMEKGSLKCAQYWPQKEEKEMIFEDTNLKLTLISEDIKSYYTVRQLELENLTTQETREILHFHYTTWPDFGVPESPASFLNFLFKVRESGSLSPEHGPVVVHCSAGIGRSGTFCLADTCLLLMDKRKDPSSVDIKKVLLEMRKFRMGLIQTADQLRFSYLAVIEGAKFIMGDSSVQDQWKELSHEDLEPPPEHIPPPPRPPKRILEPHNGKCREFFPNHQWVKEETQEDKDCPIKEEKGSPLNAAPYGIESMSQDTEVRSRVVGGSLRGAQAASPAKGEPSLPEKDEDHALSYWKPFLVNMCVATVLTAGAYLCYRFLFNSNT
Labelling: IC50 reported below 300 nM becomes YES; at or above becomes NO.

| structure.smiles | qualitative.label |
| --- | --- |
| COC(=O)CN(c1ccc(CN(c2ccc(N(Cc3ccccc3)S(C)(=O)=O)cc2)S(=O)(=O)Cc2ccccc2)cc1)S(C)(=O)=O | NO |
| CCCCOc1ccc(S(=O)(=O)N(Cc2ccc(N(CC(=O)OC)S(C)(=O)=O)cc2)c2ccc(CN(Cc3ccccc3)S(C)(=O)=O)cc2)cc1 | NO |
| COC(=O)CN(c1ccc(CN(c2ccc(CN(Cc3ccccc3)S(C)(=O)=O)cc2)S(=O)(=O)c2ccc(OC)cc2)cc1)S(C)(=O)=O | NO |
| COC(=O)CN(c1ccc(CN(c2ccc(CN(Cc3ccccc3)S(C)(=O)=O)cc2)S(=O)(=O)c2ccccc2)cc1)S(C)(=O)=O | NO |
| CCOc1ccc(S(=O)(=O)N(Cc2ccc(N(CC(=O)OC)S(C)(=O)=O)cc2)c2ccc(CN(Cc3ccccc3)S(C)(=O)=O)cc2)cc1 | YES |
